Sourced from PubChem BioAssay (NCI)

# System: MOLT-4 leukemia
# Protocol Text: NCI tumour cell line growth inhibition, 48 h
Assay Readout: TGI

Previously resolved entries follow.
{"columns": ["Compound", "TGI"],
 "data": [
  ["CO/C(=N\\N=C\\c1ccc(OC)cc1OC)c1ccncc1", "> 10 µM"],
  ["COC(=O)C1=C(c2cc(OC)c(OC)c(OC)c2)OC(c2cc(OC)c(OC)c(OC)c2)C1COC(C)=O (stereo not given)", "58.7 µM"],
  ["CC1=Nc2c([nH]c(=S)[nH]c2=O)NC(c2ccc(Cl)c(Cl)c2)C1 (stereo not given)", "> 100 µM"],
  ["O=C1NC(=O)C2(CCC(O)C2)c2cc[n+]([O-])cc21 (stereo not given)", "> 100 µM"]
]}

Proceed to the following item.
-- ask Query (compound): OCCSCc1cc2c(O)c(c1)Cc1cc(CSCCO)cc(c1O)Cc1cc(CSCCO)cc(c1O)Cc1cc(CSCCO)cc(c1O)C2 ; field requested: TGI
-- reply > 100 µM

----------
# Test system: A549 NSCLC
# Protocol Text: NCI tumour cell line growth inhibition, 48 h; in the data active = GI50 below about 0.43 µM; inactive = the rest
Reply using exactly one outcome from active, inactive

These recorded examples may help you get a feel for the data.
{"columns": ["Molecule", "System", "Answer Label"],
 "data": [
  ["O=C(CC1(O)C(=O)Nc2ccc(Br)cc21)c1ccc(C(=O)NCC2CCC3(CC2)OOC2(CCCCC2)OO3)cc1 (centres undefined)", "A549 NSCLC", "inactive"],
  ["CCn1c(-c2nonc2N)nc2c(C#CC(C)(C)O)nc(O[C@@H](CN)c3ccccc3)cc21", "A549 NSCLC", "active"],
  ["C=CC[Se]C(=O)Cc1c(C)n(C(=O)c2ccc(Cl)cc2)c2ccc(OC)cc12", "A549 NSCLC", "inactive"]
]}

-- ask Give the logged outcome of this assay for the following molecule: COc1ccc(NC(=O)c2sc3nc(C)c(C(O)c4ccc(OC)cc4)cc3c2N)cc1 (centres undefined)
-- reply active

-- ask Give the logged outcome of this assay for the following molecule: O=C(NCCN1CCOCC1)Nc1ccc(-c2cc3c(Nc4ccc(Oc5cccc(C(F)(F)F)c5)c(Cl)c4)ncnc3s2)cc1
-- reply inactive

-- ask Give the logged outcome of this assay for the following molecule: O=C1C=CN(C2OC(CO)C(O)C2O)C(=O)C1 (centres undefined)
-- reply inactive

-- ask Give the logged outcome of this assay for the following molecule: Cc1ccc2[nH]c(C(=O)NN3C(=O)CSC34CCCC(C)C4)c(-c3ccccc3)c2c1 (centres undefined)
-- reply inactive

-- ask Give the logged outcome of this assay for the following molecule: O=C(O)c1ccc(-c2ccc(C(=O)O)cc2I)c(I)c1
-- reply inactive

-- ask Give the logged outcome of this assay for the following molecule: C[C@H]1CCC/C=C/[C@@H]2C[C@H](O)C[C@H]2[C@H](O)[C@@H](S(=O)CCN)CC(=O)O1 (some centres undefined)
-- reply active

-- ask Give the logged outcome of this assay for the following molecule: COc1cc(-c2nn(C(=O)NS(=O)(=O)c3ccc(C)cc3)cc2-c2ccncc2)ccc1Cl
-- reply inactive

-- ask Give the logged outcome of this assay for the following molecule: Cc1ccccc1-n1c(/C=C\c2ccccn2)nc2ccccc2c1=O
-- reply inactive

----------
# System: NCI-H460 lung
# Protocol Text: NCI tumour cell line growth inhibition, 48 h
Assay Readout: TGI

{"columns": ["Molecule", "TGI"],
 "data": [
  ["Fc1ccc(F)c(C2SCc3nc4ccccc4n32)c1 (centres undefined)", "> 100 µM"]
]}

-- ask Query (molecule): CC12CCc3ccccc3C1=Nc1ccccc12 (centres undefined) ; field requested: TGI
-- reply > 100 µM

-- ask Query (molecule): CC(=O)OCC(OC(C)=O)C(OC(C)=O)C(OC(C)=O)C(=O)CNn1c(-c2ccccc2)nc2ccc(Br)cc2c1=O (centres undefined) ; field requested: TGI
-- reply > 100 µM

-- ask Query (molecule): COc1ccc(C2CC(=O)Oc3ccccc3O2)cc1 (centres undefined) ; field requested: TGI
-- reply > 100 µM

-- ask Query (molecule): CCOC(OCC)c1ccc(/C=C/c2cc(OC)c(OC)c(OC)c2)cc1 ; field requested: TGI
-- reply 38.1 µM

-- ask Query (molecule): O=C1NC(=O)C2(CCC(O)C2)c2cc[n+]([O-])cc21 (centres undefined) ; field requested: TGI
-- reply > 100 µM

-- ask Query (molecule): Oc1ccc(/C=N/Nc2nc3ccccc3s2)c(O)c1 ; field requested: TGI
-- reply 5.21 µM

-- ask Query (molecule): CC1(C)C=C(/C=N/Nc2ccc(Br)cc2)C(C#N)=C(O)C1(C#N)C#N ; field requested: TGI
-- reply > 100 µM

-- ask Query (molecule): CC(C)=CCC/C(C)=C/CC/C(=C/COP(=O)(OCc1ccc([N+](=O)[O-])o1)N(C)CCCCCl)CC=C(C)C (centres undefined) ; field requested: TGI
-- reply 11.8 µM

-- ask Query (molecule): O=C(CCCNC(=O)OCc1ccccc1)OCc1ccc2c(c1)C(=O)c1ccccc1C2=O ; field requested: TGI
-- reply > 100 µM

-- ask Query (molecule): COc1cc(C2CC(c3ccc4c(c3)OCO4)=NN2C(C)=O)cc(OC)c1OC (centres undefined) ; field requested: TGI
-- reply > 59.8 µM

-- ask Query (molecule): NC(C(F)(F)F)(C(F)(F)F)P(=O)(c1ccccc1)c1ccccc1 ; field requested: TGI
-- reply > 100 µM

-- ask Query (molecule): CC(=O)OCC1OC(n2c3c(c(-c4ccc(Cl)cc4)c(C#N)c2=S)C(=O)CC(C)(C)C3)C(OC(C)=O)C(OC(C)=O)C1OC(C)=O (centres undefined) ; field requested: TGI
-- reply > 100 µM

-- ask Query (molecule): CC(=N/NC(=S)Nc1c(C)n(C)n(-c2ccccc2)c1=O)/C(C)=N\NC(=S)Nc1c(C)n(C)n(-c2ccccc2)c1=O ; field requested: TGI
-- reply > 100 µM

-- ask Query (molecule): O=C(O)c1ccc(N=Nc2cc(S(=O)(=O)O)c3cccnc3c2O)cc1 ; field requested: TGI
-- reply > 100 µM

-- ask Query (molecule): OCC(O)COc1c(Cl)ccc(Cl)c1Cl (centres undefined) ; field requested: TGI
-- reply > 100 µM
